- targetDesc: Platelet-derived growth factor receptor beta (Homo sapiens) (UniProt P09619);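 also: each value is a mean percent inhibition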
- Sequence (P09619 whole entry): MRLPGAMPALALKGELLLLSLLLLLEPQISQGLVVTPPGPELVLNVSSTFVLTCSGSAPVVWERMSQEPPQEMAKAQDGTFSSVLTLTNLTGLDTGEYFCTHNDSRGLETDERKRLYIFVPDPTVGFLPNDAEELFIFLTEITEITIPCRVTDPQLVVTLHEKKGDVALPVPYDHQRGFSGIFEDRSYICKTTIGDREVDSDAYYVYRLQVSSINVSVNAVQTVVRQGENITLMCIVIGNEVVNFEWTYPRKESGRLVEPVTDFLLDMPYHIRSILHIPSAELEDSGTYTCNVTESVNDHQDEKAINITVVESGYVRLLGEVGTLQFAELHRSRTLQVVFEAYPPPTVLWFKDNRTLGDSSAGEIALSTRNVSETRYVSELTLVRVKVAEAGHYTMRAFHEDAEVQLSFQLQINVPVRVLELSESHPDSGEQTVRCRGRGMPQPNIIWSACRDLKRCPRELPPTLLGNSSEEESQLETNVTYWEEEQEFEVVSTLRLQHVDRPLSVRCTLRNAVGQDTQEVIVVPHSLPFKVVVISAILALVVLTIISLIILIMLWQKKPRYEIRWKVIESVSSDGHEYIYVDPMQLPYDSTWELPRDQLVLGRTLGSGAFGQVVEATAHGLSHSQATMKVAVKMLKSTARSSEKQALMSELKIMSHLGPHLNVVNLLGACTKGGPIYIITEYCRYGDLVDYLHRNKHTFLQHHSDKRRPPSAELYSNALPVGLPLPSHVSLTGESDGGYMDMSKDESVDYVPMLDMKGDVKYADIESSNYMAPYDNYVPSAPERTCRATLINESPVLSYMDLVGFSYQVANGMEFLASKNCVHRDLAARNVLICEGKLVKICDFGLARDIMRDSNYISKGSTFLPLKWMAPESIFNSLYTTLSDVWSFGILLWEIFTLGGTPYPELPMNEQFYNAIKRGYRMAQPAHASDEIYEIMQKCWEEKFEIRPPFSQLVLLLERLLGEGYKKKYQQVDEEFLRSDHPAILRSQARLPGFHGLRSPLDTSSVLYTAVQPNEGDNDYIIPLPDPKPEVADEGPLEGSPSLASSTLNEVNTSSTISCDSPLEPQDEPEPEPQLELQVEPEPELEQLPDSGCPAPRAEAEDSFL
- assaySetup: at 1 µM
inhibition below 40% gives not satisfied; inhibition at or above it gives satisfied.

Answered examples (2):
NS(=O)(=O)c1ccc(NC=C2C(=O)Nc3ccc4ncsc4c32)cc1 satisfied
OCc1ccc(-c2nc(-c3ccccn3)c(-c3ccc4c(c3)OCO4)[nH]2)cc1 not satisfied

Is inhibition for CC(C)c1ccc2c(c1)NC(=O)/C2=N/Nc1ccc(S(N)(=O)=O)cc1 at or above 40%? not satisfied

API: above_or_equal(metric=inhibition, cutoff=40%) for item CCn1c(-c2nonc2N)nc2c(C#CC(C)(C)O)nc(OCCNC)cc21 not satisfied

// inclusive: inhibition at least 40%? input: NS(=O)(=O)c1ccc(-c2cc3ccncc3cc2OCc2ccccc2)cc1 not satisfied

Please tell me: is the molecule COc1cc2ncn(-c3cc(OCc4ccccc4S(C)(=O)=O)c(C#N)s3)c2cc1OC at or over 40% in terms of inhibition? satisfied

Tell me whether inhibition is at least 40% here: Cc1ccc(O)cc1Nc1ccnc2ccc(S(C)(=O)=O)cc12 satisfied

Assess whether reported inhibition for CN1CCN(C(=O)c2ccc(NC(=O)Nc3ccc(N(C)c4ccnc(Nc5ccc(CS(C)(=O)=O)cc5)n4)cc3)cc2)CC1 sits at 40% or higher. satisfied

Could you tell me if the measured inhibition of NS(=O)(=O)c1cccc(Nc2cc(-c3ccc(F)cc3)n[nH]2)c1 reaches 40% or more? not satisfied

Assess whether reported inhibition for Cc1nc(-c2ccccc2)n2nc(NCCCN3CCOCC3)ncc12 sits at 40% or higher. not satisfied

====

- System: Receptor-type tyrosine-protein kinase FLT3 (Homo sapiens), P36888 [D835Y]
- Sequence (whole entry): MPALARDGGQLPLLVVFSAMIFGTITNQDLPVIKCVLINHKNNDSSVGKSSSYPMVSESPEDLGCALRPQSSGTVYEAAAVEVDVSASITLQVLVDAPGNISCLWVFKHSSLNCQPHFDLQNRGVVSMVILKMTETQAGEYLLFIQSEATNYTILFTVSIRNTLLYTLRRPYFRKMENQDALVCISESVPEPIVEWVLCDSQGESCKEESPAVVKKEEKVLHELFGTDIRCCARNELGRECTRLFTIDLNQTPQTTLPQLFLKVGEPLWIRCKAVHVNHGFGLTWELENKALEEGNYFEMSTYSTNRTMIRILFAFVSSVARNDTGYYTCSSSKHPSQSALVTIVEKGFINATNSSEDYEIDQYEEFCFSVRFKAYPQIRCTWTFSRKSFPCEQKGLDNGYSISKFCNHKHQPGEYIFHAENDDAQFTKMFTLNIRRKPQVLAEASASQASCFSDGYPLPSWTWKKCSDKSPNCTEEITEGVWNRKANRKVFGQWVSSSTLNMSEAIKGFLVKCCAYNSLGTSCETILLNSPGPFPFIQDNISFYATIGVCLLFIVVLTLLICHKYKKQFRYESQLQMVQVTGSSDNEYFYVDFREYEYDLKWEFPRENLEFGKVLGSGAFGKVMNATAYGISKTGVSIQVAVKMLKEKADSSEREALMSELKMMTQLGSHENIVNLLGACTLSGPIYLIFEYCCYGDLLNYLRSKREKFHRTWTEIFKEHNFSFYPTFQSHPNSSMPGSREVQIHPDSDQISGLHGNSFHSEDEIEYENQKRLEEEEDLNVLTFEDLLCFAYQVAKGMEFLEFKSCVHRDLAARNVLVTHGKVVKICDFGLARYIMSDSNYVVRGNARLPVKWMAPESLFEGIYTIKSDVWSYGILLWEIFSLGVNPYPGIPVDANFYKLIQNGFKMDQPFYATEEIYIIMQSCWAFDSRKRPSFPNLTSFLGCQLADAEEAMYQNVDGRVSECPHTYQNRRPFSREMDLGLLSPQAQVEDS
- assaySetup: at 1 µM
valueKind: inhibition

CN(C)C(=O)O[C@H]1CN[C@H](C#Cc2cc3ncnc(Nc4ccc(OCc5cccc(F)c5)c(Cl)c4)c3s2)C1 4.09%
NS(=O)(=O)c1ccc(NC=C2C(=O)Nc3ccc4ncsc4c32)cc1 87.5%

# inhibition measured on Receptor-type tyrosine-protein kinase FLT3 (Homo sapiens), P36888 [D835Y] for item Cc1cc(O)cc(C)c1/C=C/c1cncc(C(=O)N(C)C)c1 = 5.04%

Sample Nc1nccc(C#Cc2cncnc2Nc2ccc(OCc3cccc(F)c3)c(Cl)c2)n1 , system: Receptor-type tyrosine-protein kinase FLT3 (Homo sapiens), P36888 [D835Y]. Its inhibition is 7.19%

Record OCc1ccc(-c2nc(-c3ccccn3)c(-c3ccc4c(c3)OCO4)[nH]2)cc1 has Receptor-type tyrosine-protein kinase FLT3 (Homo sapiens), P36888 [D835Y] inhibition equal to -0.9%

For COc1cc(/C=N/Nc2ncnc3c2cnn3C(C)C)ccc1O on Receptor-type tyrosine-protein kinase FLT3 (Homo sapiens), P36888 [D835Y], measured inhibition was 23.1%

Summary: COc1cc(Nc2nccc(-c3cnn4ncccc34)n2)cc(OC)c1 , Receptor-type tyrosine-protein kinase FLT3 (Homo sapiens), P36888 [D835Y], inhibition = 77.3%

Receptor-type tyrosine-protein kinase FLT3 (Homo sapiens), P36888 [D835Y] assay, molecule Cc1ccc2c(c1)/C(=N/Nc1ccc(S(N)(=O)=O)cc1)C(=O)N2 , recorded inhibition = 10.8%

Let me check: NS(=O)(=O)c1ccc(N/N=C2\C(=O)Nc3ccc(Cl)cc32)cc1 , system Receptor-type tyrosine-protein kinase FLT3 (Homo sapiens), P36888 [D835Y], measured inhibition is 16.4%

====

- targetDesc: Insulin receptor (Homo sapiens) (UniProt P06213);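 also: reported values are averages of replicate inhibition measurements against the insulin receptor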
- Sequence (P06213 28-758 limits assumed): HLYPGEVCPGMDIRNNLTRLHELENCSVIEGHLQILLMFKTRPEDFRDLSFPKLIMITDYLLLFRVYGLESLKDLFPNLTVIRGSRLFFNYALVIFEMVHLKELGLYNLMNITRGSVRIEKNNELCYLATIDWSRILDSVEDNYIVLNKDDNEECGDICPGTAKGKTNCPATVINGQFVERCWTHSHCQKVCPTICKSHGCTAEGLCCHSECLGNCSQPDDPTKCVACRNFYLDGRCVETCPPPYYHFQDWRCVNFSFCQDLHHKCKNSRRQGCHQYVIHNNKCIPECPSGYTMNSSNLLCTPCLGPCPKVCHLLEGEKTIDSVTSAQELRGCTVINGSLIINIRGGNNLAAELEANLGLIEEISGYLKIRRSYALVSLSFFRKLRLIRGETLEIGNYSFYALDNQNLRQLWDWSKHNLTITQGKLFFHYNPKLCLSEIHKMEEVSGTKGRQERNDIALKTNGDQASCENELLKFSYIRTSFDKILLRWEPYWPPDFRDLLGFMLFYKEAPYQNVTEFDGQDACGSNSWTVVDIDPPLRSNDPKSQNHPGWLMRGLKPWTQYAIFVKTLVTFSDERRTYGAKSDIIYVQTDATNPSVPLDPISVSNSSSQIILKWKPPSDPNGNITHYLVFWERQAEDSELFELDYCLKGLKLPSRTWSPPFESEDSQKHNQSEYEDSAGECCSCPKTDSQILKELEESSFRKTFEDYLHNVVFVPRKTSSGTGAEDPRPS
- Sequence (P06213 763-1382 limits assumed): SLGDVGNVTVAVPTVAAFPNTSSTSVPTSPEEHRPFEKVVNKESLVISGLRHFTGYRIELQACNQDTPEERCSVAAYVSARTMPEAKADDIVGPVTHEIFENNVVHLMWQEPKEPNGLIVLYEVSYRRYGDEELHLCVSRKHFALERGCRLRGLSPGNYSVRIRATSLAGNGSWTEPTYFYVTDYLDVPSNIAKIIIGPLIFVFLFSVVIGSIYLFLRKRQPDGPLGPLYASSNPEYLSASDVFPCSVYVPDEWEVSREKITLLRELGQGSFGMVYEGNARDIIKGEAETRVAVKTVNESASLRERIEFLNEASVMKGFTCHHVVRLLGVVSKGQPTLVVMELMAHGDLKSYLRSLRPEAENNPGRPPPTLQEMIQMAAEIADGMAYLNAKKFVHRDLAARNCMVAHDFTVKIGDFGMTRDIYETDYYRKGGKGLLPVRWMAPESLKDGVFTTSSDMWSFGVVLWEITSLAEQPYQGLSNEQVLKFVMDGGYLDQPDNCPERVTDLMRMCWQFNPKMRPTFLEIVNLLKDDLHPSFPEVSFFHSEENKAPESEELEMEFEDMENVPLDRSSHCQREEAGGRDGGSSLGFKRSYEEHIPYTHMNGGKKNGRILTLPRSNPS
- assaySetup: at 0.1 µM
The following compounds are shown together with reported inhibition values.
Value expressed in %; do not type the unit.

Entry CN(c1ccc(NC(=O)Nc2ccc(OC(F)(F)F)cc2)cc1)c1ccnc(Nc2cccc(S(N)(=O)=O)c2)n1 , inhibition reported as 1.9

The reported value for Nc1nccc(-c2c(-c3ccc(F)cc3)nn3cc(C(F)(F)F)ccc23)n1 in terms of inhibition is 1.38

Record summary for NS(=O)(=O)c1ccc(Nc2cc(-c3cccc(O)c3)n[nH]2)cc1 : reported inhibition = 3.33

// inhibition lookup, compound = NS(=O)(=O)c1ccc(-c2cc3ccncc3cc2OCc2ccccc2)cc1 , result: 4.34

Field inhibition (entry Nc1ccc(C#Cc2cncnc2Nc2ccc(OCc3cccc(F)c3)c(Cl)c2)cc1 ) reads 1.22

Value of inhibition reported for the compound COC(=O)c1ccc2c(c1)C(=Cc1cc(Br)c(O)c(Br)c1)C(=O)N2 is 3.96

For CS(=O)(=O)Nc1cccc(-c2ccc3c(NC(=O)C4CC4)n[nH]c3c2)c1 the compound record lists inhibition as 2.96

// inhibition lookup, compound = Cc1cc(-c2ccccn2)cc(C)c1/C=C/c1cncc(-c2nn[nH]n2)c1 , result: 5.7

Entry Cc1cc(O)cc(C)c1/C=C/c1cncc(C(=O)N(C)C)c1 — recorded inhibition = 2.68

Recorded inhibition (compound O=C(Nc1ccc(Oc2ccc3[nH]c(NC(=O)c4ccco4)nc3c2)cc1)Nc1cc(C(F)(F)F)ccc1F ): 1.23

====

Measured inhibition by item
- targetDesc: Serine/threonine-protein kinase Sgk2 (Homo sapiens) (UniProt Q9HBY8)
- Sequence (whole entry): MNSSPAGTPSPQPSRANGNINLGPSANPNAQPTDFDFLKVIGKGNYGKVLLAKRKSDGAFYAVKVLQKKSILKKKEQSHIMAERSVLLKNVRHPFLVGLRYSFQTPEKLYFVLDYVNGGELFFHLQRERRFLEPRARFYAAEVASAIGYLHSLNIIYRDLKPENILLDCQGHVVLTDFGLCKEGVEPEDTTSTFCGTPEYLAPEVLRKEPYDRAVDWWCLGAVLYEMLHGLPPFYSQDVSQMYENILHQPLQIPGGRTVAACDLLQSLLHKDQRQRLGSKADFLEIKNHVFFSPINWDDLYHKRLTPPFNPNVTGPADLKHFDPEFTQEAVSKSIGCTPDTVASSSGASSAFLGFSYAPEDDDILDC
- assaySetup: at 1 µM
- Description: GSK_PKIS: SGK2 mean inhibition at 1 uM [Nanosyn]
Give the value in % but do not write % after it.

Solved cases below.
O=S(=O)(CCOCc1ccc(-c2ccc3ncnc(Nc4ccc(OCc5cccc(F)c5)c(Cl)c4)c3c2)o1)c1ccccc1 -0.92
Cc1ccc2c(-c3ccnc(Nc4cccc(C(F)(F)F)c4)n3)c(-c3ccccc3)nn2n1 -0.25
COc1cc2ncnc(Nc3ccc(C)c(O)c3)c2cc1OC 2.34

# inhibition (compound: NS(=O)(=O)c1ccc(N/N=C2\C(=O)Nc3ccc(Cl)cc32)cc1 ) is 5.65

The reported value for NS(=O)(=O)c1ccc(-c2cc3ccncc3cc2OCc2ccccc2)cc1 in terms of inhibition is -1.22

====

- Test system: Receptor-type tyrosine-protein kinase FLT3 (Homo sapiens), P36888 [D835Y]
- assaySetup: at 0.1 µM
valueKind: inhibition (%)
Numbers only; they are read as %.

compound	measurementUnits	inhibition
NS(=O)(=O)c1ccc(Nc2cc(-c3cccc(O)c3)n[nH]2)cc1	%	3.16
Cc1nc(-c2ccccc2)n2nc(NCCCN3CCOCC3)ncc12	%	-0.33

Reading of inhibition for COc1cccc(-n2nc(C)c3c(N/N=C(\C)c4ccncc4)ncnc32)c1 with Receptor-type tyrosine-protein kinase FLT3 (Homo sapiens), P36888 [D835Y]: -4.92

Cc1ccc2c(-c3ccnc(Nc4cccc(C(F)(F)F)c4)n3)c(-c3ccccc3)nn2n1 on Receptor-type tyrosine-protein kinase FLT3 (Homo sapiens), P36888 [D835Y] gives inhibition = 3.67

Response field inhibition (Receptor-type tyrosine-protein kinase FLT3 (Homo sapiens), P36888 [D835Y]) for item Nc1nccc(-c2c(-c3ccc(F)cc3)ncn2CCCN2CCOCC2)n1 : -5.08

Result for Cc1ccc2c(c1)/C(=N/Nc1ccc(S(N)(=O)=O)cc1)C(=O)N2 , tested on Receptor-type tyrosine-protein kinase FLT3 (Homo sapiens), P36888 [D835Y], inhibition: -0.36

Tested system Receptor-type tyrosine-protein kinase FLT3 (Homo sapiens), P36888 [D835Y]; inhibition recorded for Cc1cc(Cl)cc2c1NC(=O)C2=NNc1ccc(S(N)(=O)=O)cc1 was -2.63

Lab entry: Receptor-type tyrosine-protein kinase FLT3 (Homo sapiens), P36888 [D835Y] assay, compound Cc1ccc2c(-c3ccnc(Nc4ccc5c(c4)OCCO5)n3)c(-c3ccc(C(F)(F)F)cc3)nn2n1 , inhibition = -5.65

Field inhibition (Receptor-type tyrosine-protein kinase FLT3 (Homo sapiens), P36888 [D835Y]), entry C[C@@H](Oc1cc(-n2cnc3ccc(OC[C@@H](O)CO)cc32)sc1C(N)=O)c1ccccc1Cl : -3.1

Reading of inhibition for COc1cccc(-n2ncc3c(N/N=C/c4ccc(C)cc4)ncnc32)c1 with Receptor-type tyrosine-protein kinase FLT3 (Homo sapiens), P36888 [D835Y]: 2.71

The compound Nc1nccc(C#Cc2cncnc2Nc2ccc(OCc3cccc(F)c3)c(Cl)c2)n1 on Receptor-type tyrosine-protein kinase FLT3 (Homo sapiens), P36888 [D835Y]: inhibition was 3.95

Receptor-type tyrosine-protein kinase FLT3 (Homo sapiens), P36888 [D835Y] data for CCOc1nccc2c1nc(-c1nonc1N)n2CC ; its inhibition: -2.2

inhibition on Receptor-type tyrosine-protein kinase FLT3 (Homo sapiens), P36888 [D835Y] for COc1cc(Nc2nccc(-c3cnn4ncccc34)n2)cc(OC)c1 is 27

For COC(=O)Nc1nc2cc(Oc3ccc(NC(=O)Nc4cccc(Br)c4)cc3)ccc2[nH]1 on Receptor-type tyrosine-protein kinase FLT3 (Homo sapiens), P36888 [D835Y], measured inhibition was -2.2

Record for N#Cc1c(NC(=O)c2ccccc2F)sc2c1CCCC2 under target or system Receptor-type tyrosine-protein kinase FLT3 (Homo sapiens), P36888 [D835Y]: inhibition reported as -2.89

inhibition on Receptor-type tyrosine-protein kinase FLT3 (Homo sapiens), P36888 [D835Y] for Cc1ccc(O)cc1Nc1ccnc2ccc(S(C)(=O)=O)cc12 is -0.25

# CCS(=O)(=O)c1ccc(OC)c(Nc2nccc(N(C)c3ccc4c(C)n[nH]c4c3)n2)c1 with Receptor-type tyrosine-protein kinase FLT3 (Homo sapiens), P36888 [D835Y]: inhibition is -7.67
